assay.overview: NCI Yeast Anticancer Drug Screen. Data for the rad50 strain (AID 155);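 note: 0% = growth of vehicle-only cultures of the same strain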
condition.description: S. cerevisiae rad50 strain growth inhibition; at 50.0 µM; hits give high values
Procedure: Growth inhibition of yeast strains with defined genetic alterations is measured as a screen for potential anti-cancer activity. Selected strains with alterations in DNA damage repair or cell cycle control were exposed to compounds and growth inhibition was measured relative to vehicle treated controls. The strain used in this assay is rad50
About 79,000 compounds went through this panel and 15% of them were active in at least one assay; those are over-represented in the sample as a whole.
property: growth inhibition (%)
Please respond with the number in % and leave the unit unwritten.

Record request: growth inhibition value, item CCN(CC)CCNc1cc(OC)c(N)c2cccnc12
14.2

Record request: growth inhibition value, item CCSc1nc(C)cc(=O)[nH]1
28

Record request: growth inhibition value, item NC(=S)NNCC(=O)CC(O)(C(F)(F)F)C(F)(F)Cl (stereo unspecified)
-21.2

Record request: growth inhibition value, item CCN(CC)CCCC(C)NC(=O)c1ccc2c(c1)C(=O)c1ccccc1C2=O (stereo unspecified)
6

Provenance of the data: PubChem BioAssay (NCI)
